Record form. Attribute: CC50 at 48 h. Fill in for each entry.
Assay Procedure: Cytotoxicity against mouse 3T6 cells assessed as inhibition of cell proliferation after 48 hrs by MTT assay
Type: cell-based

Returns the measured CC50 at 48 h for the input compound. Input: CCOC(=O)c1cn(C2CC2)c2cc(N3CCN(CC45CC6CC(CC(C6)C4)C5)CC3)c(F)cc2c1=O 27.8 µM

Try CCOC(=O)c1cn(C2CC2)c2cc(N3CCN(Cc4ccccc4)CC3)c(F)cc2c1=O next. > 30 µM

Try CCOC(=O)c1cn(C2CC2)c2cc(N3CCNCC3)c(F)cc2c1=O next. > 30 µM

###

System: Trypanosoma brucei gambiense
Assay Procedure: Antitrypanosomal activity against Trypanosoma brucei gambiense FeoITMAP/1893 assessed as inhibition of parasite growth after 72 hrs by resazurin dye based microplate reader analysis
Format: functional, organism-based
Condition Set: FeoITMAP/1893, 72 h
pIC50: −log10 of the molar value.
Met means recorded pIC50 is 5 or above; Not met means it is below 5.

Check this molecule for pIC50 at or above 5: CCOC(=O)c1cn(C2CC2)c2cc(N3CCNCC3)c(F)cc2c1=O [CIPROFLOXACIN ETHYL ESTER] Not met

Try O=C(O)c1cn(C2CC2)c2cc(N3CCNCC3)c(F)cc2c1=O [CIPROFLOXACIN] next. Not met

Try Clc1ccc2c(Nc3ccc(-c4nc5ccccc5[nH]4)cc3)ccnc2c1 next. Met

Try CCOC(=O)c1cn(C2CC2)c2cc(N3CCN(Cc4ccccc4)CC3)c(F)cc2c1=O next. Met

Try Fc1ccc2[nH]c(-c3ccc(Nc4ccnc5cc(Cl)ccc45)cc3)nc2c1 next. Met

Try N=C(N)c1ccc(OCCCCCOc2ccc(C(=N)N)cc2)cc1 [PENTAMIDINE] next. Met

Try CCOC(=O)c1cn(C2CC2)c2cc(N3CCN(CC45CC6CC(CC(C6)C4)C5)CC3)c(F)cc2c1=O next. Not met

###

Assay Procedure: Cytotoxicity against monkey LLC-MK2 cells
Type: cell-based, Macaca mulatta
Condition Set: rhesus monkey
Experimental Endpoint: CC50 (µM)
Please reply with the bare figure in µM and do not write the unit itself.

Returns the measured CC50 for the input compound. Input: Fc1ccc2[nH]c(-c3ccc(Nc4ccnc5cc(Cl)ccc45)cc3)nc2c1 10.6

Try Clc1ccc2c(Nc3ccc(-c4nc5ccccc5[nH]4)cc3)ccnc2c1 next. 15.5
